- System: KMS-11
- measurementDescription: Cytotoxicity against human KMS11 cells at 50 uM after 24 hrs by neutral red uptake assay
- Format: functional, cell-based
Calls of active or inactive are those of the source. The calls are words filed in the database; no cut-off is given here.
Lab note: assign the record to one of 1 for active, -1 for inactive

Request: Hi, sorry to bother you, what did the test record for c1cnc(N2CCNCC2)nc1 ?
Result: -1

Request: Hi, sorry to bother you, what did the test record for C(=C\c1ccccc1)/CN1CCNCC1 ?
Result: -1

Request: Hi, sorry to bother you, what did the test record for C[C@H](CCC(=O)O)[C@H]1CC[C@H]2[C@@H]3CC[C@@H]4C[C@H](O)CC[C@]4(C)[C@H]3CC[C@]12C ?
Result: -1

Request: Hi, sorry to bother you, what did the test record for c1ccc(N2CCNCC2)nc1 ?
Result: -1

Request: Hi, sorry to bother you, what did the test record for C[C@H](CCC(=O)N1CCN(C/C=C/c2ccccc2)CC1)[C@H]1CC[C@H]2[C@@H]3CC[C@@H]4C[C@H](O)CC[C@]4(C)[C@H]3CC[C@]12C ?
Result: -1

Request: Hi, sorry to bother you, what did the test record for C[C@H](CCC(=O)N1CCN(C/C=C/c2ccccc2)CC1)[C@H]1CC[C@H]2[C@@H]3[C@H](O)C[C@@H]4C[C@H](O)CC[C@]4(C)[C@H]3CC[C@]12C ?
Result: 1

Request: Hi, sorry to bother you, what did the test record for C[C@H](CCC(=O)O)[C@H]1CC[C@H]2[C@@H]3[C@H](O)C[C@@H]4C[C@H](O)CC[C@]4(C)[C@H]3CC[C@]12C ?
Result: -1

Request: Hi, sorry to bother you, what did the test record for C[C@H](CCC(=O)N1CCN(c2ccccn2)CC1)[C@H]1CC[C@H]2[C@@H]3[C@H](O)C[C@@H]4C[C@H](O)CC[C@]4(C)[C@H]3CC[C@]12C ?
Result: -1
